All figures here come from patent US11981658B2.

Biological target: EGFR L858R/C797S (Homo sapiens, UniProt P00533, C797S/L858R)
Sequence (P00533 25-1210 C797S/L858R): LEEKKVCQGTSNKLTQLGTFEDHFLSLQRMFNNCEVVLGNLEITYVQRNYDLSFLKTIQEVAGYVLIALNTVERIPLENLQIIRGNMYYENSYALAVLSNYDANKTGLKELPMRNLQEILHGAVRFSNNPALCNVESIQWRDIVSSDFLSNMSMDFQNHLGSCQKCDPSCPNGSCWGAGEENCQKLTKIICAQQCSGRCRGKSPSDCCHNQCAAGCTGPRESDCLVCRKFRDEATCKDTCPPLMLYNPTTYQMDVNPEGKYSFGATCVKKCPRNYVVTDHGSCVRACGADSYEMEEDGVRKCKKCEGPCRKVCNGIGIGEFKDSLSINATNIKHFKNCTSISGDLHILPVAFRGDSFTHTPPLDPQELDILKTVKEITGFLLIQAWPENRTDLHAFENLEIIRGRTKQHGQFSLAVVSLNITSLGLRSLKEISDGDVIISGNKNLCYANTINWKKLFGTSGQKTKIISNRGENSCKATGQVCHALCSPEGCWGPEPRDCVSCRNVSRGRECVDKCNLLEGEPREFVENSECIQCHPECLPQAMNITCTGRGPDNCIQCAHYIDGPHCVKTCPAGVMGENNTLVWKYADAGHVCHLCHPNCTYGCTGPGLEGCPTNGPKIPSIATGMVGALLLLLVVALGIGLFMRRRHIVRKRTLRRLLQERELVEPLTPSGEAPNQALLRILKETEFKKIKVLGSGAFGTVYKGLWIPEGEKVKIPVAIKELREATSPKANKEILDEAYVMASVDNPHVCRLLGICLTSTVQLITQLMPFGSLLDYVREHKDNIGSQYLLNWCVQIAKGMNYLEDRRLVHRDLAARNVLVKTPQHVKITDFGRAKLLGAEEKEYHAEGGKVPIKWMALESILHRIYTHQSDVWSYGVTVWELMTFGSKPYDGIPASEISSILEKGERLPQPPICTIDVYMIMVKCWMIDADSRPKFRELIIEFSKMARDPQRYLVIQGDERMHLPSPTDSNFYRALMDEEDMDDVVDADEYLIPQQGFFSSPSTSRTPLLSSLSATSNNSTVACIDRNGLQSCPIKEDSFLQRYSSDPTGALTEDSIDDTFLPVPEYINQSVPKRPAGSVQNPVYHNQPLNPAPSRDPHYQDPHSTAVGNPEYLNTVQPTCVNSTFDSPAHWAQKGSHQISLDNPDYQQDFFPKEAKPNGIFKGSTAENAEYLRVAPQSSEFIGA
Assay: Biochemical EGFR kinase inhibition assay (Lance Ultra TR-FRET), double mutant L858R/C797S
Conditions: IC50 L858R/C797S (nM), 100 μM ATP
Consider the cut-off 40 nM. If the recorded IC50 is strictly smaller, the label is y; if not, the label is n.

Some entries whose results are on file:
| molecule | group_label |
| --- | --- |
| CC1(CO)CCN(c2cc(Nc3ccnc(-c4cnn(S(=O)(=O)C5CC5)c4)n3)ncc2C#Cc2ccc(CN3CCOCC3)nc2)CC1 | y |
| CN(C)C[C@@H]1CCCN(c2cc(Nc3ccnc(-c4cnn(S(=O)(=O)C5CC5)c4)n3)ncc2C#Cc2cnn(CCF)c2)C1 | y |
| O=S(=O)(C1CC1)n1cc(-c2nccc(Nc3cc(N4CCC(O)CC4)c(C#Cc4cnn(C5CC5(F)F)c4)cn3)n2)cn1 (stereo not shown) | y |
| O=S(=O)(C1CC1)n1cc(-c2nccc(Nc3cc(N4CCC(F)CC4)c(C#Cc4cnn(C5CCOCC5)c4)cn3)n2)cn1 | n |
| O=S(=O)(C1CC1)N1CCC(C#Cc2cnc(Nc3ccnc(-c4cnn(S(=O)(=O)C5CC5)c4)n3)cc2NC[C@H]2CC[C@H](CO)CC2)CC1 | n |

Bench note: check whether CN1CCC(C#Cc2cnc(Nc3ccnc(-c4cnn(S(=O)(=O)C5CC5)c4)n3)cc2N2CCC3(CCO3)CC2)C1 (stereo not shown) shows IC50 below 40 nM
n

Bench note: check whether CC1(CO)CCN(c2cc(Nc3ccnc(-c4cnn(S(=O)(=O)C5CC5)c4)n3)ncc2C#CC2CCCCC2)CC1 shows IC50 below 40 nM
n

Bench note: check whether Cn1cc(C#Cc2cnc(Nc3ccnc(-c4cnn(S(=O)(=O)C5CC5)c4)n3)cc2N[C@H]2CC[C@@](C)(O)CC2)cn1 shows IC50 below 40 nM
n

Bench note: check whether CC(C)(C#Cc1cnc(Nc2ccnc(-c3cnn(S(=O)(=O)C4CC4)c3)n2)cc1N[C@H]1CC[C@@H](O)CC1)N1CCOCC1 shows IC50 below 40 nM
n

Bench note: check whether CC1(CO)CCN(c2cc(Nc3ccnc(-c4cnn(S(=O)(=O)C5CC5)c4)n3)ncc2C#Cc2ccc(C(=O)N3CCC(O)CC3)cc2)CC1 shows IC50 below 40 nM
y

Bench note: check whether CC1(CO)CCN(c2cc(Nc3ccnc(-c4cnn(S(=O)(=O)C5CC5)c4)n3)ncc2C#CC2CCN(C(=O)C(F)(F)F)C2)CC1 (stereo not shown) shows IC50 below 40 nM
y

Bench note: check whether CC1(CO)CCN(c2cc(Nc3ccnc(-c4cnn(S(=O)(=O)C5CC5)c4)n3)ncc2C#CCCF)CC1 shows IC50 below 40 nM
y

====

Record form. Attribute: IC50. Fill in for each entry.
Molecular target: EGFR Del19/T790M/C797S (Homo sapiens, UniProt P00533, C797S/DEL746-750/T790M)
Sequence (P00533 with tags, fused parts or gaps DEL746-750/T790M/C797S): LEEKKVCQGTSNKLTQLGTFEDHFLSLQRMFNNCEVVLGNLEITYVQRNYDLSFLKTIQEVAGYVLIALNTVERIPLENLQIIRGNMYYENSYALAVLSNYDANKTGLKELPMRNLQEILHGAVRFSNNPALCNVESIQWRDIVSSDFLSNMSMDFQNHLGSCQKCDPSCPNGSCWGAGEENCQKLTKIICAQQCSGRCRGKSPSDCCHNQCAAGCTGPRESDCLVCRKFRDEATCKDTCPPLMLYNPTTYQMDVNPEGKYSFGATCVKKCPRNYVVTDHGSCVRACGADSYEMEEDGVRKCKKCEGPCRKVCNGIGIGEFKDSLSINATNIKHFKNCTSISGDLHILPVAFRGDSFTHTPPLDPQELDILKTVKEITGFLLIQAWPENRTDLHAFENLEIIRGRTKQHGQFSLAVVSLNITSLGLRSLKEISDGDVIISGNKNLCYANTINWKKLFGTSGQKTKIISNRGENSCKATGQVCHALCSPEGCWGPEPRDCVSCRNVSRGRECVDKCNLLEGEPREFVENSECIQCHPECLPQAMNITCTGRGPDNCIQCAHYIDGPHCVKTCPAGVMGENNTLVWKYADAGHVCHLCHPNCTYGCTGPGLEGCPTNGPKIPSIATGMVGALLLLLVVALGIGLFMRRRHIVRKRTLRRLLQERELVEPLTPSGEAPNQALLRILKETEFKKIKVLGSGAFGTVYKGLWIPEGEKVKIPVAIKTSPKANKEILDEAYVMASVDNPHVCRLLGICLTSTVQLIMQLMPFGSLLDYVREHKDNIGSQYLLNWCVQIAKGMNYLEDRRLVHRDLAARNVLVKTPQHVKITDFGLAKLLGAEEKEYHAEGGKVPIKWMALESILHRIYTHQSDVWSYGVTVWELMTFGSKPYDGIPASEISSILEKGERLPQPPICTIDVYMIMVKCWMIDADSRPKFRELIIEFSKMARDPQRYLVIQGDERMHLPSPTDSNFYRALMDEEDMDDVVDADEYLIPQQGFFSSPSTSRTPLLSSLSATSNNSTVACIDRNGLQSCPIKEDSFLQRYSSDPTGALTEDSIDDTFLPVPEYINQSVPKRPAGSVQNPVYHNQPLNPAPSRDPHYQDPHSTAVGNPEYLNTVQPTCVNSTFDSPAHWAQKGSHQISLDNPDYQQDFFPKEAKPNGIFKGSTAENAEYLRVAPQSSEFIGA
Assay: Biochemical EGFR kinase inhibition assay (Lance Ultra TR-FRET), triple mutant del19/T790M/C797S
Conditions: IC50 Del19/T790M/C797S (nM), 100 μM ATP
One number for each entry, in nM.

| chemical_smiles | unit_of_measurement | IC50 |
| --- | --- | --- |
| CC1(CO)CCN(c2cc(Nc3ccnc(-c4cnn(S(=O)(=O)C5CC5)c4)n3)ncc2C#Cc2cnc(CN3CCOCC3)s2)CC1 | nM | 1.5 |

Quick request: IC50 for each listed item, please.
1. CC1(CO)CCN(c2cc(Nc3ccnc(-c4cnn(S(=O)(=O)C5CC5)c4)n3)ncc2C#Cc2cnn(CC(F)F)c2)CC1
2. CN(C)C(=O)c1ccc(C#Cc2cnc(Nc3ccnc(-c4cnn(S(=O)(=O)C5CC5)c4)n3)cc2N2CCC(C)(CO)CC2)cc1

1: 1.8; 2: 1.4

====

Molecular target: EGFR Del19/C797S (Homo sapiens, UniProt P00533, C797S/DEL746-750)
Sequence (P00533 with tags, fused parts or gaps DEL746-750/C797S): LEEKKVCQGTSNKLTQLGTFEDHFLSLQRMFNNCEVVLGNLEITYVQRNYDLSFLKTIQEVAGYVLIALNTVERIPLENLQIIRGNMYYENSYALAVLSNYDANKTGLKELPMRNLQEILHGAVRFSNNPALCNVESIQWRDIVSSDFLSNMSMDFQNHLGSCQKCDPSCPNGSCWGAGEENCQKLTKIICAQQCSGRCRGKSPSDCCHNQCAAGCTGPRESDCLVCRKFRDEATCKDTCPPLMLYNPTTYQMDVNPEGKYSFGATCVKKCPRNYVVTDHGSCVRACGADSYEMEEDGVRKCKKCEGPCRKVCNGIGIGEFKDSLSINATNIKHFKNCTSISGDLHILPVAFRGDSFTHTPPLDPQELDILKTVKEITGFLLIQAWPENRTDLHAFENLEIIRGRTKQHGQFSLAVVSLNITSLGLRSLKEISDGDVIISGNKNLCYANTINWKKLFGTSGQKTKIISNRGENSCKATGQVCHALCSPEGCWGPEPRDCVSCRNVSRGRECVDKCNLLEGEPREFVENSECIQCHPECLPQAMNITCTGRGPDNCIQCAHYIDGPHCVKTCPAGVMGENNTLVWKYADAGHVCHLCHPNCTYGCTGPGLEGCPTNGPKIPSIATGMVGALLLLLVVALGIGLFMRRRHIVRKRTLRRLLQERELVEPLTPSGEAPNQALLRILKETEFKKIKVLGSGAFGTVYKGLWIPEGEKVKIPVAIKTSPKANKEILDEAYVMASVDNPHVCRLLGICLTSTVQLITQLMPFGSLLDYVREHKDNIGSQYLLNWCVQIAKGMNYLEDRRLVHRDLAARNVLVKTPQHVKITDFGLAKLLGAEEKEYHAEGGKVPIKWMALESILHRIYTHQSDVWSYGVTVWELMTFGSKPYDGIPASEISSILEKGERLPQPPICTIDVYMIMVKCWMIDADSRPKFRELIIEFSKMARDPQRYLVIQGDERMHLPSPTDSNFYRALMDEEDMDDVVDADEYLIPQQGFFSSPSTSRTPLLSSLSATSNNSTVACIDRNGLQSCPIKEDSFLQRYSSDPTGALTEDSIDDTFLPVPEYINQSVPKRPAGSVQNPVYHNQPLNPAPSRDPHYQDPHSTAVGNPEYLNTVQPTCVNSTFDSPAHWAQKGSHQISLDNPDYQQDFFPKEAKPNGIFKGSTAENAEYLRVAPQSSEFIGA
Assay: Biochemical EGFR kinase inhibition assay (Lance Ultra TR-FRET), double mutant del19/C797S
Settings: ATP at Km; read-out: IC50 Del19/C797S (nM), Km ATP
Record form. Attribute: IC50. Fill in for each entry.
One number for each entry, in nM.

Below are worked cases with known answers.
| chemical_smiles | IC50 [nM] |
| --- | --- |
| CC1(CO)CCN(c2cc(Nc3ccnc(-c4cnn(S(=O)(=O)C5CC5)c4)n3)ncc2C#CC2(O)CCCC2)CC1 | 2 |
| CN(C)C[C@H]1CC[C@@H](Nc2cc(Nc3ccnc(-c4cnn(S(=O)(=O)C5CC5)c4)n3)ncc2C#Cc2cnn(C3CC3)c2)CC1 | 1.2 |
| CC(C)Nc1cc(Nc2ccnc(-c3cnn(S(=O)(=O)C4CC4)c3)n2)ncc1C#Cc1csc(CF)n1 | 350 |
| O=S(=O)(C1CC1)n1cc(-c2nccc(Nc3cc(N[C@H]4CC[C@@H](O)CC4)c(C#Cc4ccc(NCCN5CCOCC5)cc4)cn3)n2)cn1 | 14.1 |
| CN(C)Cc1cccc(C#Cc2cnc(Nc3ccnc(-c4cnn(S(=O)(=O)C5CC5)c4)n3)cc2N2CCC(C)(CO)CC2)c1 | 0.3 |

Request - read-out IC50 | tested on EGFR Del19/C797S (Homo sapiens, UniProt P00533, C797S/DEL746-750) | compound CC1(O)CCN(c2cc(Nc3ccnc(-c4cnn(S(=O)(=O)C5CC5)c4)n3)ncc2C#Cc2cccnc2)CC1
0.3

====

Biological target: EGFR Del19/T790M/C797S (Homo sapiens, UniProt P00533, C797S/DEL746-750/T790M)
Assay: Biochemical EGFR kinase inhibition assay (Lance Ultra TR-FRET), triple mutant del19/T790M/C797S
Details: ATP at Km; read-out: IC50 Del19/T790M/C797S (nM), Km ATP
Consider the cut-off 0.5 nM. If the recorded IC50 is strictly smaller, the label is Satisfied; if not, the label is Not satisfied.

Some entries whose results are on file:
| molecule | group_label |
| --- | --- |
| CC1(CO)CCN(c2cc(Nc3ccnc(-c4cnn(S(=O)(=O)C5CC5)c4)n3)ncc2C#CC2CCOC2)CC1 (stereo not shown) | Satisfied |
| CC1(CO)CCN(c2cc(Nc3ccnc(-c4cnn(S(=O)(=O)C5CC5)c4)n3)ncc2C#Cc2nc(C(F)(F)F)cs2)CC1 | Not satisfied |
| O=S(=O)(C1CC1)n1cc(-c2nccc(Nc3cc(N[C@H]4CC[C@@H](CO)CC4)c(C#Cc4cnn(C(F)F)c4)cn3)n2)cn1 | Not satisfied |
| CN(C)Cc1ccc(C#Cc2cnc(Nc3ccnc(-c4cnn(S(=O)(=O)C5CC5)c4)n3)cc2N2CCC(C)(CO)CC2)cn1 | Satisfied |
| CC(C)Nc1cc(Nc2ccnc(-c3cnn(S(=O)(=O)C4CC4)c3)n2)ncc1C#CC(C)(C)O | Not satisfied |

Consider the additional molecule presented here.
Bench note: check whether CC1(CO)CCN(c2cc(Nc3ccnc(-c4cnn(S(=O)(=O)C5CC5)c4)n3)ncc2C#Cc2ccc(C(=O)N3CCOCC3)cc2)CC1 shows IC50 below 0.5 nM
Not satisfied

====

Record form. Attribute: log10(IC50). Fill in for each entry.
Molecular target: EGFR wildtype (WT) (Homo sapiens, UniProt P00533)
Sequence (P00533 25-1210): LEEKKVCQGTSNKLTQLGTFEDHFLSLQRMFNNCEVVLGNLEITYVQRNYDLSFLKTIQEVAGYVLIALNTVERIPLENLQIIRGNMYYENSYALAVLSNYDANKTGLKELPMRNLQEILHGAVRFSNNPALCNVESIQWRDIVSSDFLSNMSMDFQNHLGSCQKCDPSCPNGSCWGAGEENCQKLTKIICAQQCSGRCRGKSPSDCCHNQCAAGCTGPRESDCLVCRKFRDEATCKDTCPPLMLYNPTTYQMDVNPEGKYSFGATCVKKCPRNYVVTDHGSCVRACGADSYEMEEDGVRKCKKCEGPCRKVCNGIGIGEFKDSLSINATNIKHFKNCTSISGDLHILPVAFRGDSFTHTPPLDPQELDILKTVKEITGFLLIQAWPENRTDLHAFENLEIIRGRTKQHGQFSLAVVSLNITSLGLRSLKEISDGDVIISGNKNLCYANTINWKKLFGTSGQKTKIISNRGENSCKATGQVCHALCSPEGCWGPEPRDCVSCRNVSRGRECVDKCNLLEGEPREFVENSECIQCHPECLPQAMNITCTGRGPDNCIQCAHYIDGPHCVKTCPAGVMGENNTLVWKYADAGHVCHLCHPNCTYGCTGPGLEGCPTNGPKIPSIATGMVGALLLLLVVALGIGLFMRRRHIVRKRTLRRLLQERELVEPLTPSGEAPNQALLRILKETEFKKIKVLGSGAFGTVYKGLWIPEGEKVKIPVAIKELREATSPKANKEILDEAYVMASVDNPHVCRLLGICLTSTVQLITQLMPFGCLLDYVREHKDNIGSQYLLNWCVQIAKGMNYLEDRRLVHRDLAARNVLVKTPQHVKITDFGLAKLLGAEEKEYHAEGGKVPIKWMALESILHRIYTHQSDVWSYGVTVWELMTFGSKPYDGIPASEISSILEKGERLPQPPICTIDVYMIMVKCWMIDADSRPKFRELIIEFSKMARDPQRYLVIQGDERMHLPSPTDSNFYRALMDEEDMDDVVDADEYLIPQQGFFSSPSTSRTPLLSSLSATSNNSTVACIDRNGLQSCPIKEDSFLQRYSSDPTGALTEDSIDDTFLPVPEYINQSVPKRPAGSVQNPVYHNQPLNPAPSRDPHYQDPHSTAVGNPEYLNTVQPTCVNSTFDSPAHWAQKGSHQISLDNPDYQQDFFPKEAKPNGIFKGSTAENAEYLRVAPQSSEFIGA
Test: Biochemical EGFR kinase inhibition assay (Lance Ultra TR-FRET), wildtype
Details: ATP at Km; read-out: IC50 WT (nM), Km ATP
Remember, log10 of IC50, in nM.

Below are worked cases with known answers.
| compound | assayed_system | log10(IC50) |
| --- | --- | --- |
| CC1(O)CCC(Nc2cc(Nc3ccnc(-c4cnn(S(=O)(=O)C5CC5)c4)n3)ncc2C#Cc2cnn(C3CC3(F)F)c2)CC1 (stereo not drawn) [Example 326] | EGFR wildtype (WT) (Homo sapiens, UniProt P00533) | 1.25 |
| CC1(CO)CCN(c2cc(Nc3ccnc(-c4cnn(S(=O)(=O)C5CC5)c4)n3)ncc2C#CCCN2CCOCC2)CC1 [Example 285] | EGFR wildtype (WT) (Homo sapiens, UniProt P00533) | 0.40 |
| CN(C)C[C@H]1CC[C@@H](Nc2cc(Nc3ccnc(-c4cnn(S(=O)(=O)C5CC5)c4)n3)ncc2C#Cc2cnn(CC(F)F)c2)CC1 [Example 311] | EGFR wildtype (WT) (Homo sapiens, UniProt P00533) | 1.24 |
| O=S(=O)(C1CC1)n1cc(-c2nccc(Nc3cc(N[C@H]4CC[C@@H](O)CC4)c(C#Cc4cccc(NCCN5CCOCC5)c4)cn3)n2)cn1 [Example 173] | EGFR wildtype (WT) (Homo sapiens, UniProt P00533) | 1.36 |
| CC1(CO)CCN(c2cc(Nc3ccnc(-c4cnn(S(=O)(=O)C5CC5)c4)n3)ncc2C#CC2CCOC2)CC1 (stereo not drawn) [Example 197] | EGFR wildtype (WT) (Homo sapiens, UniProt P00533) | 0.75 |

Moving on to the next compound.
Request - read-out log10(IC50) | tested on EGFR wildtype (WT) (Homo sapiens, UniProt P00533) | compound CC1(CO)CCN(c2cc(Nc3ccnc(-c4cnn(S(C)(=O)=O)c4)n3)ncc2C#Cc2cnn(C(F)(F)F)c2)CC1 [Example 268]
2.02
